The reported numbers originate from paper PMC12416549.

measured.on: T1, TNFR1 (Homo sapiens, UniProt P19438)
T1 chain: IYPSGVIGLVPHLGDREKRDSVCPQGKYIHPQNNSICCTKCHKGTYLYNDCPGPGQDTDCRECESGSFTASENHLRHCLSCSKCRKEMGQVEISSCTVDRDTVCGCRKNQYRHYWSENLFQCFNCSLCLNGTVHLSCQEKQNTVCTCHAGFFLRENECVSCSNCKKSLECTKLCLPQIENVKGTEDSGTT
assay.summary: yeast display SC50
observable: apparent Kd (screen) (nM)

S51Q (designed binder) MTLQELLREEALRRAEAEAFRYALELLAEKFPEQKEYLLDLAEEIESQIRQLSGVDVEDVRKFLDKEWAWVKELLAEHPAELAEVEAARAARLAELRAEVEAKVAA	1.27

[P] E18G (designed binder) MTLQELLREEALRRAEAGAFRYALELLAEKFPEQKEYLLDLAEEIESQIRSLSGVDVEDVRKFLDKEWAWVKELLAEHPAELAEVEAARAARLAELRAEVEAKVAA
[Q] S47D (designed binder) MTLQELLREEALRRAEAEAFRYALELLAEKFPEQKEYLLDLAEEIEDQIRSLSGVDVEDVRKFLDKEWAWVKELLAEHPAELAEVEAARAARLAELRAEVEAKVAA
[R] L96A (designed binder) MTLQELLREEALRRAEAEAFRYALELLAEKFPEQKEYLLDLAEEIESQIRSLSGVDVEDVRKFLDKEWAWVKELLAEHPAELAEVEAARAARLAEARAEVEAKVAA
Rank entries according to their apparent Kd (screen), from the largest number down. // ordering of labels required in reply
R, Q, P
(R: 2.73 nM, Q: 1.27 nM, P: 0.49 nM)
